These measurements were taken from patent US20210355194A1.

- ASSAY_SYSTEM: CV S-protein construct 6 trimer TP31001F (SARS-CoV-2, UniProt P0DTC2 14-1208)
- TEST_DETAILS: SPR

{"BINDER": "variant 5-35 (Fc fusion) VHH: EVQLVESGGGLVQPGGSLRLSCAASGPTFSIYAMGWFRQAPGKERELVAGISWNGGSTNYADSVKGRFTISADNSKNTAYLQMNSLKPEDTAVYYCALRRRFGGQEWGQGTLVTVSS", "Kd / nM": 16}
{"BINDER": "variant 6-71 (Fc fusion) VHH: EVQLVESGGGLVQPGGSLRLSCAASGITFSNDAMGWFRQAPGKEREFVAIITSSDTNDTTNYADSVKGRFTISADNSKNTAYLQMNSLKPEDTAVYYCARLHYYDSSGYFDYWGQGTLVTVSS", "Kd / nM": 0.6}
